- System: RAW-Dual (murine macrophage reporter line)
- experimentalDetails: NF-kB reporter (SEAP) activity fold change vs agonist alone; higher = enhanced NF-kB activity
- conditionParameters: modulator concentration 10 µM; agonist: MPLA […]
// N strictly below 0.9 in NF-kB reporter; Y otherwise

{"compound": "Cc1nnc(NN=Cc2ccc(Cl)c([N+](=O)[O-])c2)[nH]c1=O", "testTarget": "RAW-Dual (murine macrophage reporter line)", "classification": "Y"}
{"compound": "Cc1ccc(C=NN=C(c2ccccc2)c2ccccc2)o1", "testTarget": "RAW-Dual (murine macrophage reporter line)", "classification": "Y"}
{"compound": "O=C1CN(/N=C/c2ccc([N+](=O)[O-])o2)C(=O)N1", "testTarget": "RAW-Dual (murine macrophage reporter line)", "classification": "N"}
{"compound": "COc1ccc(Cc2nnc(C3CCN(S(C)(=O)=O)CC3)s2)cc1", "testTarget": "RAW-Dual (murine macrophage reporter line)", "classification": "Y"}
{"compound": "CC(C)c1nc(CN(C)C(=O)N[C@H](C(=O)N[C@@H](Cc2ccccc2)C[C@H](O)[C@H](Cc2ccccc2)NC(=O)OCc2cncs2)C(C)C)cs1", "testTarget": "RAW-Dual (murine macrophage reporter line)", "classification": "N"}
{"compound": "CC1=NN(c2ccc(Cl)cc2)C(=O)C1=Cc1c(C)nn(-c2ccc(C)cc2C)c1O", "testTarget": "RAW-Dual (murine macrophage reporter line)", "classification": "Y"}
{"compound": "Cc1cc(OCC(=O)Nc2ccc(Cl)c(C(F)(F)F)c2)ccc1Cl", "testTarget": "RAW-Dual (murine macrophage reporter line)", "classification": "Y"}
{"compound": "CCOC(=O)C1=C(C)NC(C)=C(C(=O)OC)C1c1ccc(Cl)cc1 (stereo not drawn)", "testTarget": "RAW-Dual (murine macrophage reporter line)", "classification": "N"}
{"compound": "O=[N+]([O-])c1cc2c(cc1C=Nc1ccc(O)cc1)OCO2", "testTarget": "RAW-Dual (murine macrophage reporter line)", "classification": "Y"}
{"compound": "CC(=O)N=c1sc(S(N)(=O)=O)nn1C [Prestw-802]", "testTarget": "RAW-Dual (murine macrophage reporter line)", "classification": "Y"}
{"compound": "NCCCS(=O)(=O)O", "testTarget": "RAW-Dual (murine macrophage reporter line)", "classification": "Y"}
{"compound": "O=C(O)CC(c1ccccc1)N1C(=O)c2ccccc2C1=O (stereo not drawn)", "testTarget": "RAW-Dual (murine macrophage reporter line)", "classification": "Y"}
{"compound": "Cc1ccc(C(=O)c2cc(O)c(O)c([N+](=O)[O-])c2)cc1", "testTarget": "RAW-Dual (murine macrophage reporter line)", "classification": "Y"}
{"compound": "c1cnn(-c2ccc(N=Nc3ccc(-n4cccn4)cc3)cc2)c1", "testTarget": "RAW-Dual (murine macrophage reporter line)", "classification": "Y"}
{"compound": "CCCC(=O)Nc1ccc(N2CCOCC2)c(Cl)c1", "testTarget": "RAW-Dual (murine macrophage reporter line)", "classification": "Y"}
{"compound": "COc1c(Cl)cc(C(=O)Nc2cccc(NC(=O)c3ccco3)c2)cc1Cl", "testTarget": "RAW-Dual (murine macrophage reporter line)", "classification": "N"}
{"compound": "O=C(O)c1cc(O)c2ccccc2n1", "testTarget": "RAW-Dual (murine macrophage reporter line)", "classification": "Y"}
{"compound": "COc1ccc(C(C)(C#N)CC#N)cc1 (stereo not drawn)", "testTarget": "RAW-Dual (murine macrophage reporter line)", "classification": "Y"}
{"compound": "COc1c2c(nc3ccccc13)OC(C(C)(O)COC(C)=O)C2 (stereo not drawn)", "testTarget": "RAW-Dual (murine macrophage reporter line)", "classification": "Y"}
{"compound": "C=CCN1CCCC1CNC(=O)c1cc2nn[nH]c2cc1OC.Cl (stereo not drawn)", "testTarget": "RAW-Dual (murine macrophage reporter line)", "classification": "Y"}
{"compound": "CC1=C(C(=O)Nc2ccc(C)cn2)C(c2ccccc2Cl)C2=C(CCCC2=O)N1 (stereo not drawn)", "testTarget": "RAW-Dual (murine macrophage reporter line)", "classification": "N"}

====

- System: RAW-Dual (murine macrophage reporter line)
- experimentalDetails: NF-kB reporter (SEAP) activity fold change vs agonist alone; higher = enhanced NF-kB activity
- conditionParameters: modulator concentration 10 µM; agonist: LPS 0.1 ug/mL
Measured NF-kB reporter accompanies every entry in the list below.
experimentalReadout: NF-kB reporter

{"molecule": "O=C(NN=Cc1sc2ccccc2c1Cl)c1ccncc1", "valueMeasured": 1.02}
{"molecule": "CCCCSc1nnc2c(n1)OC(c1cccc(F)c1)Nc1ccc(Br)cc1-2 (stereo unspecified)", "valueMeasured": 1.01}
{"molecule": "CCCOc1cccc(C(=O)Nc2scc(-c3ccccc3Cl)c2C(=O)OC)c1", "valueMeasured": 0.827}
{"molecule": "CCC(=O)Nc1ccc(NC(=O)c2ccco2)c(OC)c1", "valueMeasured": 0.831}
{"molecule": "O=C(CCC1CCCC1)Nc1cccc(Cl)c1", "valueMeasured": 0.906}
{"molecule": "CCSC1=C(C#N)C2(CCCC2)C(C#N)C(=O)N1 (stereo unspecified)", "valueMeasured": 0.964}

====

- Test system: RAW-Dual (murine macrophage reporter line)
- experimentalDetails: NF-kB reporter (SEAP) activity fold change vs agonist alone; higher = enhanced NF-kB activity
- conditionParameters: modulator concentration 10 µM; agonist: LPS 0.1 ug/mL
experimentalReadout: NF-kB reporter

{"compound": "COc1ccc(C=NNc2nc(Nc3ccc(C)cc3Br)nc(N3CCOCC3)n2)c(OC)c1", "valueMeasured": 1.13}
{"compound": "Cc1ccc(CCNc2ccccc2C)cn1", "valueMeasured": 0.931}
{"compound": "CC(=O)Nc1c(-c2ccc3ccccc3c2)nc2ccccn12", "valueMeasured": 0.942}
{"compound": "CC(C)NCC(O)COc1cccc2[nH]ccc12 (configuration not stated)", "valueMeasured": 0.968}
{"compound": "O=c1c(CN2CCC(O)(c3ccc(Br)cc3)CC2)coc2ccccc12", "valueMeasured": 0.953}
{"compound": "N#CC[C@H](C1CCCC1)n1cc(-c2ncnc3[nH]ccc23)cn1", "valueMeasured": 0.341}
{"compound": "COCCNc1nc(SCC(=O)Nc2cccc(C(F)(F)F)c2)nc2ccccc12", "valueMeasured": 0.549}
{"compound": "CCCC(CCC)C(N)=O", "valueMeasured": 0.95}
{"compound": "CCCc1nc(C(C)(C)O)c(C(=O)OCc2oc(=O)oc2C)n1Cc1ccc(-c2ccccc2-c2nnn[nH]2)cc1", "valueMeasured": 1.15}
{"compound": "Oc1nc[nH]n1", "valueMeasured": 0.927}
{"compound": "CCN(CC)c1ccc(C=NNC(=O)c2ccccc2)c(O)c1", "valueMeasured": 2.11}
{"compound": "COC(=O)C1=C(C)N(C)C(C)=C(C(=O)OC)C1c1ccc(-c2ccccc2)cc1", "valueMeasured": 0.943}
{"compound": "O=C(Nc1cc(C(F)(F)F)cc(C(F)(F)F)c1)c1cc2ccccc2o1", "valueMeasured": 1.05}
{"compound": "O=C(NCC(O)c1ccc(C(F)(F)F)cc1)c1cc(Br)cs1 (configuration not stated)", "valueMeasured": 0.981}
{"compound": "COc1ccccc1S(=O)(=O)N1CC(Oc2nc3c(C(F)(F)F)cccc3s2)C1", "valueMeasured": 1.18}
{"compound": "CS(=O)(=O)NCc1cccc(Oc2ccc(F)cc2)c1", "valueMeasured": 0.955}
{"compound": "c1ccc(CN2CCN(c3cc(-c4cccnc4)n[nH]3)CC2)cc1", "valueMeasured": 1.06}
{"compound": "CC1(C)OC(=O)C=CC2(C)C1CC(O)C1(C)C2CCC2(C)C(c3ccoc3)OC(=O)C3OC321 (configuration not stated)", "valueMeasured": 1.1}
{"compound": "CCN(CC)CCOC(=O)C(Cc1cccc2ccccc12)CC1CCCO1.O=C(O)C(=O)O (configuration not stated)", "valueMeasured": 1.05}
{"compound": "COc1ccc(C=NNC(=O)C2COc3cc4ccccc4cc3O2)c(O)c1 (configuration not stated)", "valueMeasured": 0.966}
{"compound": "CCOc1ccc(Nc2oc(-c3ccc(COc4ccc(C)cc4)o3)nc2C#N)cc1", "valueMeasured": 0.717}
{"compound": "CC(=O)N(C1=C(Nc2ccccc2)C(=O)c2ccccc2C1=O)c1ccccc1", "valueMeasured": 1.52}

====

- Test system: RAW-Dual (murine macrophage reporter line)
- experimentalDetails: NF-kB reporter (SEAP) activity fold change vs agonist alone; higher = enhanced NF-kB activity
- conditionParameters: modulator concentration 10 µM; agonist: CpG ODN 1826 0.5 ug/mL

{"molecule": "[O-][n+]1cccc(CO)c1", "NF-kB reporter": 1.58}
{"molecule": "N#Cc1ccc(C(=O)Nc2nc(-c3cccs3)c(C(=O)C(F)(F)F)s2)cc1", "NF-kB reporter": 0.789}
{"molecule": "CCN(CC)c1ccc(C=Nc2c(C)cc(C)cc2C)cc1", "NF-kB reporter": 0.97}
{"molecule": "CC(=O)N=C1NC(=O)C(=Cc2ccc(C)o2)S1", "NF-kB reporter": 0.92}
{"molecule": "c1ccc(CCn2c(COc3ccccc3)nc3ccccc32)cc1", "NF-kB reporter": 1.01}
{"molecule": "CCC(=O)Nc1ccc(S(=O)(=O)N2CCSC(c3ccccc3C)CC2)c(C)c1 (stereo unspecified)", "NF-kB reporter": 0.688}
{"molecule": "Cc1cc(OC2CCN(C(=O)c3csc(C)n3)CC2)nc(C)n1", "NF-kB reporter": 1.01}
{"molecule": "CN1CCN(CCC=C2c3ccccc3Sc3ccc(S(=O)(=O)N(C)C)cc32)CC1", "NF-kB reporter": 0.935}
{"molecule": "COC(=O)C1=CN(C2CC2)C=C(C(=O)OC)C1c1ccccc1Cl", "NF-kB reporter": 1.12}
{"molecule": "CCOc1cccc2sc(=NC(=O)c3ccc(S(=O)(=O)N4CCOCC4)cc3)n(C)c12", "NF-kB reporter": 0.991}
{"molecule": "c1ccc(CCn2c3ccccc3c3nnc(SCCN4CCOCC4)nc32)cc1", "NF-kB reporter": 0.859}
